src = ChEMBL document CHEMBL4507327

biological target: Activin receptor type-1B (Homo sapiens)
Sequence (P36896 whole entry): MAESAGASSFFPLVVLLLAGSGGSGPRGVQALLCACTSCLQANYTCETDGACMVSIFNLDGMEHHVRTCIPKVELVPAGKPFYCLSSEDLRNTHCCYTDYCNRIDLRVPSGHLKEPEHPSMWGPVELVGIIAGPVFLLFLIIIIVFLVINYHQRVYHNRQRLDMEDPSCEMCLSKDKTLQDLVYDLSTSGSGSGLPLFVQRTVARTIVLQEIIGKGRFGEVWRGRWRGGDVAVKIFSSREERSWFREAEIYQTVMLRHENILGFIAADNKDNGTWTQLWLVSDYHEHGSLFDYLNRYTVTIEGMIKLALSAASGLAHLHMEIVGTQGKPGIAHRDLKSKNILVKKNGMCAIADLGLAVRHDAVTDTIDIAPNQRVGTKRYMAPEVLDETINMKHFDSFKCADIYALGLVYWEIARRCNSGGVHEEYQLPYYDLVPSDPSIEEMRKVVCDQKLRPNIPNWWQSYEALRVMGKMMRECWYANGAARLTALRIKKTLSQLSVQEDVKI

compound	result unit	IC50
CN1C(=O)[C@@H](N2CCc3cn(CC4CCS(=O)(=O)CC4)nc3C2=O)COc2ccccc21 [TP-030n]	nM	1000

* * *

molecular target: Mitogen-activated protein kinase 8 (Homo sapiens, UniProt P45983); assay: JNK1(MAP8LGF1) Takeda global kinase panel
Sequence (P45983 whole entry): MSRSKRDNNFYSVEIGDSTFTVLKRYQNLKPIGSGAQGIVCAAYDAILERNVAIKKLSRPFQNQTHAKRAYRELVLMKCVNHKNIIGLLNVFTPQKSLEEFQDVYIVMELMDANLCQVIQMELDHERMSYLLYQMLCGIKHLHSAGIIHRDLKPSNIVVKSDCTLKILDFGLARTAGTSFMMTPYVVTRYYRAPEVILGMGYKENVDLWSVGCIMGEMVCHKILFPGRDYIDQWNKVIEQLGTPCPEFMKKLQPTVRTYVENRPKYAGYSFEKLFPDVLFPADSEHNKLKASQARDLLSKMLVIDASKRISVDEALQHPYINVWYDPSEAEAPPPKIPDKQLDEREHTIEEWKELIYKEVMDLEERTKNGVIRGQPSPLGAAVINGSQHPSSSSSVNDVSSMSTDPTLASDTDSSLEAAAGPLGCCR
Documented IC50 across a set of compounds

compound	test target	IC50 (nM)
CN1C(=O)[C@@H](N2CCc3cn(CC4CCS(=O)(=O)CC4)nc3C2=O)COc2ccccc21 [TP-030n]	Mitogen-activated protein kinase 8 (Homo sapiens, UniProt P45983)	1000
CN1C(=O)[C@@H](N2CCc3cn(Cc4ccccc4)nc3C2=O)COc2ccccc21	Mitogen-activated protein kinase 8 (Homo sapiens, UniProt P45983)	1000
